system_tested: bovine erythrocyte CA-II (Bos taurus, UniProt P00921)
Sequence (P00921 whole entry): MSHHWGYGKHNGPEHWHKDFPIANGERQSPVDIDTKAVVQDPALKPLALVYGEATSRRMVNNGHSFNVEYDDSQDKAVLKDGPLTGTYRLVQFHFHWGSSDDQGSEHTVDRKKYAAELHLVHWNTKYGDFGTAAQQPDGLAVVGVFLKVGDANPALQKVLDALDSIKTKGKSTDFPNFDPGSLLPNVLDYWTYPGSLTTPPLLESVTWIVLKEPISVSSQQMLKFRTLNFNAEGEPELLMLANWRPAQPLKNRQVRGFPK
protocol_text: CA-II in vitro inhibition assay
Format: biochemical
experimental_parameters: compound at 0.5 mM; bovine CA-II
Each entry below carries its recorded Percent inhibition (0.5 mM).
Give the value in % but do not write % after it.

The following compounds have reported results that may help.
{"columns": ["smiles", "system_tested", "unit_annotation", "Percent inhibition (0.5 mM)"],
 "data": [
  ["Cc1ccc(Cn2c(-c3ccc(Cl)cc3)cs/c2=N/N=C/c2ccc(N3CCOCC3)cc2)cc1", "bovine erythrocyte CA-II (Bos taurus, UniProt P00921)", "%", 70.20],
  ["Cc1cccc(C)c1-n1c(-c2ccc([N+](=O)[O-])cc2)cs/c1=N/N=C/c1ccc(N2CCOCC2)cc1", "bovine erythrocyte CA-II (Bos taurus, UniProt P00921)", "%", 89.76],
  ["C(=N\\N=c1\\scc(-c2ccccc2)n1CCc1ccccc1)/c1ccc(N2CCOCC2)cc1", "bovine erythrocyte CA-II (Bos taurus, UniProt P00921)", "%", 84.29],
  ["Cc1cccc(C)c1-n1c(-c2ccc(Cl)cc2)cs/c1=N/N=C/c1ccc(N2CCOCC2)cc1", "bovine erythrocyte CA-II (Bos taurus, UniProt P00921)", "%", 81.46]
]}

Task: Please report Percent inhibition (0.5 mM) with bovine erythrocyte CA-II (Bos taurus, UniProt P00921) for item `C(=N\N=c1\scc(-c2ccccc2)n1C1CCCCC1)/c1ccc(N2CCOCC2)cc1` .
Result: 86.44

Task: Give Percent inhibition (0.5 mM) for `Clc1ccc(-c2cs/c(=N/N=C/c3ccc(N4CCOCC4)cc3)n2CCc2ccccc2)cc1` tested on bovine erythrocyte CA-II (Bos taurus, UniProt P00921).
Result: 75.36
